Give measured pEC50 for each item. Keep answers brief.
system_tested: PPAR-γ (Mus musculus)
Construct: endogenous in cells
Sequence (P37238 whole entry): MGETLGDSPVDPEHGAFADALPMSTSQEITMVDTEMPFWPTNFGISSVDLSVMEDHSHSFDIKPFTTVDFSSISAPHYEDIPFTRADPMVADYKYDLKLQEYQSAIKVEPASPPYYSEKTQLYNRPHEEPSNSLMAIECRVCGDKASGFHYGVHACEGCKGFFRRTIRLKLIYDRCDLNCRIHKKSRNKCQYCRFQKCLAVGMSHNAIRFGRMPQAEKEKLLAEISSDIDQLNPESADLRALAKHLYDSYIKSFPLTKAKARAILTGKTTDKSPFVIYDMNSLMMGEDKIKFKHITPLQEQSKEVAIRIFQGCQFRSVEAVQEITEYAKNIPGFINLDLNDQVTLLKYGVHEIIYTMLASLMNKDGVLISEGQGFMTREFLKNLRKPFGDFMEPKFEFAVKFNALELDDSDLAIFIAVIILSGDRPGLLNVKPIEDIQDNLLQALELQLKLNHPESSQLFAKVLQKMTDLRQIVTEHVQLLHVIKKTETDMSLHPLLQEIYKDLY
assay_remarks: 3T3-L1 transient reporter assay (AD3T3-L1 reporter)
run_conditions: 3T3-L1 cells, aP2 promoter luciferase reporter, 48 hours
One number for each entry, as −log10 of the molar value.

Provide the reported pEC50 of each entry below, same order.
1. Cc1oc(-c2ccccc2)nc1CCCC#CCC(C(=O)O)n1nccn1 (stereo not drawn) [Example 1-15]
2. Cc1oc(-c2ccccc2)nc1CCCC#CCC(C(=O)O)c1cccs1 (stereo not drawn) [Example 1-13]
3. Cc1oc(-c2ccccc2)nc1CCCC#CCC(C(=O)O)n1cccc1 (stereo not drawn) [Example 1-11]

Response:
[7.82, 6.52, 7.05]
